assay: Metabolic stability in rat brain homogenate assessed as half life by HPLC; format: ADME, tissue-based

{"COMPOUND": "CC(C(=O)OC[C@H]1O[C@@H](O)[C@H](O)[C@@H](O)[C@@H]1O)c1cccc(C(=O)c2ccccc2)c1 (stereo partly specified)", "UNITS LABEL": "min", "half-life": 43.5}

---

target: Solute carrier family 2, facilitated glucose transporter member 1 (Rattus norvegicus); experiment: Inhibition of GluT1-mediated [14C]D-glucose uptake in Wistar rat brain by perfusion technique
Sequence (P11167 whole entry, the tested form may be a part): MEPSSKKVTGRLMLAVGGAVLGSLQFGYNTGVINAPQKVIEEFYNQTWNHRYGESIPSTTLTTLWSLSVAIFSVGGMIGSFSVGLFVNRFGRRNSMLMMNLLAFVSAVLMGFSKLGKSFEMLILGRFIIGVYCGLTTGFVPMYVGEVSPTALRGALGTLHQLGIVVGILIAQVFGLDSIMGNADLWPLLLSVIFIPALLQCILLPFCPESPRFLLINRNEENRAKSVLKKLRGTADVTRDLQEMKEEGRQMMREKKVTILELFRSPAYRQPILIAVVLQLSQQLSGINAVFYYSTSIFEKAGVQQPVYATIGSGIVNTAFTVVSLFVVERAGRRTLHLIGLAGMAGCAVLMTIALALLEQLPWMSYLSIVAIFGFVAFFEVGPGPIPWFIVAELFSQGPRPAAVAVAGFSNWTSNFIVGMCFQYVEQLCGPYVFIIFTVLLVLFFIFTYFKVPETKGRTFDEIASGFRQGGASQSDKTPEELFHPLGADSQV
pIC50: −log10 of the molar value.

{"COMPOUND": "COc1ccc2c(c1)c(CC(=O)OC[C@H]1O[C@@H](O)[C@H](O)[C@@H](O)[C@@H]1O)c(C)n2C(=O)c1ccc(Cl)cc1", "pIC50": 6.15}
{"COMPOUND": "CC(C(=O)OC[C@H]1O[C@@H](O)[C@H](O)[C@@H](O)[C@@H]1O)c1cccc(C(=O)c2ccccc2)c1 (some centres not stated)", "pIC50": 4.48}

---

experiment: Chemical stability in aqueous phosphate buffer at pH 7.4 assessed as half life by HPLC; assay type: physicochemical
MEASUREMENT LABEL: half-life (h)

{"COMPOUND": "COc1ccc2c(c1)c(CC(=O)OC[C@H]1O[C@@H](O)[C@H](O)[C@@H](O)[C@@H]1O)c(C)n2C(=O)c1ccc(Cl)cc1", "RECORDED VALUE": 40.5}
{"COMPOUND": "COc1ccc2c(c1)c(CC(=O)OCC(=O)OC[C@H]1O[C@@H](O)[C@H](O)[C@@H](O)[C@@H]1O)c(C)n2C(=O)c1ccc(Cl)cc1", "RECORDED VALUE": 3}
{"COMPOUND": "CC(C(=O)OC[C@H]1O[C@@H](O)[C@H](O)[C@@H](O)[C@@H]1O)c1cccc(C(=O)c2ccccc2)c1 (some centres undefined)", "RECORDED VALUE": 88.5}
{"COMPOUND": "COc1ccc2c(c1)c(CC(=O)OC(C)C(=O)OC[C@H]1O[C@@H](O)[C@H](O)[C@@H](O)[C@@H]1O)c(C)n2C(=O)c1ccc(Cl)cc1 (some centres undefined)", "RECORDED VALUE": 9.5}

---

test: Metabolic stability in rat liver homogenate assessed as half life by HPLC; type: ADME, tissue-based
MEASUREMENT LABEL: half-life (min)

{"COMPOUND": "CC(C(=O)OC[C@H]1O[C@@H](O)[C@H](O)[C@@H](O)[C@@H]1O)c1cccc(C(=O)c2ccccc2)c1 (stereo partly specified)", "RECORDED VALUE": 8.6}
